Cited source: ChEMBL document CHEMBL5291721

# TESTED_ON: 5-hydroxytryptamine receptor 2A (Homo sapiens, UniProt P28223)
# Sequence (P28223 whole entry): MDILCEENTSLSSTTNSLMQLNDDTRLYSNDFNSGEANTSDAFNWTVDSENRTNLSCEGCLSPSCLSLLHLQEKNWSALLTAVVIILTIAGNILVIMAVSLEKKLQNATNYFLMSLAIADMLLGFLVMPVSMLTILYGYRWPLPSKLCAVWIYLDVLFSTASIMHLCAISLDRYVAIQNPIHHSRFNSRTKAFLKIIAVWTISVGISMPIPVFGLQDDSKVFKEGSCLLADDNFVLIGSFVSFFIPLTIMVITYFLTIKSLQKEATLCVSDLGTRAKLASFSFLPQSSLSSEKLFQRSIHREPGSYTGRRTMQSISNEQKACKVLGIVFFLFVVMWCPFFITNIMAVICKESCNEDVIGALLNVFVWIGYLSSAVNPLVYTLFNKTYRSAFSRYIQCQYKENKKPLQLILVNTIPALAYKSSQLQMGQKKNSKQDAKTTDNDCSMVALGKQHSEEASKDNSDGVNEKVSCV
# Type: functional, cell-based
PARAMETER: AC50

Return reported AC50; argument: CN1C(=O)CC(C)(c2ccccc2)C1=O (configuration not stated) [METHSUXIMIDE]
> 10 µM

What measured AC50 goes with CC1=CC(=O)c2ccccc2C1=O [MENADIONE] ?
> 10 µM

Dear colleague, I am looking for the recorded AC50 of the following compound: CCCCC(C)(O)C/C=C/[C@H]1[C@H](O)CC(=O)[C@@H]1CCCCCCC(=O)OC (some centres not stated) [MISOPROSTOL]
> 30 µM

Could you share which AC50 value was measured for CCCC(CCC)C(=O)O[C@H]1C[C@H]2CC[C@@H](C1)[N+]2(C)C [ANISOTROPINE] ?
> 30 µM

Report AC50 for CN1C(=O)CC(c2ccccc2)C1=O (configuration not stated) [PHENSUXIMIDE] please.
> 10 µM

Which measured AC50 value corresponds to C[C@H]1C[C@@H]2[C@H]([C@@H](O)C[C@@]3(C)[C@H]2CC[C@]3(O)C(=O)COC(=O)CCC(=O)O)[C@@]2(C)C=CC(=O)C=C12 [METHYLPREDNISOLONE HEMISUCCINATE] ?
> 30 µM

So what's the measured AC50 for this one? COC(=O)[C@H]1[C@@H](OC(=O)c2ccccc2)C[C@@H]2CC[C@H]1N2C [COCAINE]
> 30 µM

For COc1ccc(C(=O)N2CCN(c3ccc4c(c3)CCC(=O)N4)CC2)cc1OC [VESNARINONE] , what is its reported AC50?
> 30 µM

What measured AC50 goes with O=C(Cn1ccnc1[N+](=O)[O-])NCc1ccccc1 [BENZNIDAZOLE] ?
> 30 µM

Look up AC50 for this compound: N[C@@H](C(=O)N[C@@H]1C(=O)N2C(C(=O)O)=C(Cl)CS[C@H]12)c1ccccc1 [CEFACLOR ANHYDROUS]
> 30 µM

Could you tell me which AC50 is on file for `COC(=O)N[C@H](C(=O)N1CCC[C@H]1c1nc(-c2ccc(-c3ccc(-c4c[nH]c([C@@H]5CCCN5C(=O)[C@@H](NC(=O)OC)C(C)C)n4)cc3)cc2)c[nH]1)C(C)C` ?
> 30 µM

What measured AC50 goes with CCCCCOC(=O)Nc1nc(=O)n([C@@H]2O[C@H](C)[C@@H](O)[C@H]2O)cc1F [CAPECITABINE] ?
> 30 µM

Which AC50 value is on record for C#C[C@]1(O)CC[C@H]2[C@@H]3CCC4=CCCC[C@@H]4[C@H]3CC[C@@]21C [LYNESTRENOL] ?
> 30 µM

Data request, read-out AC50, for CC(=O)NS(=O)(=O)c1ccc(N)cc1 [SULFACETAMIDE]
> 10 µM

Item under review: `CN1CC(=O)N2[C@H](c3ccc4c(c3)OCO4)c3[nH]c4ccccc4c3C[C@@H]2C1=O` . Reported AC50?
> 30 µM

So what's the measured AC50 for this one? CN(C)C(=O)OC1N=C(c2ccccc2)c2cc(Cl)ccc2N(C)C1=O (configuration not stated) [CAMAZEPAM]
> 30 µM

I'd like to know its AC50. The compound in question is O=C(O)Cc1cn(-c2ccccc2)nc1-c1ccc(Cl)cc1 [LONAZOLAC]
> 30 µM

====

Hi there, I'd appreciate the recorded AC50 for every entry that follows.

Query AC50 on UniProt P37288 for NS(=O)(=O)c1cc(-c2nnn[nH]2)c(NCc2cccs2)cc1Cl [AZOSEMIDE]
Sequence (P37288 whole entry): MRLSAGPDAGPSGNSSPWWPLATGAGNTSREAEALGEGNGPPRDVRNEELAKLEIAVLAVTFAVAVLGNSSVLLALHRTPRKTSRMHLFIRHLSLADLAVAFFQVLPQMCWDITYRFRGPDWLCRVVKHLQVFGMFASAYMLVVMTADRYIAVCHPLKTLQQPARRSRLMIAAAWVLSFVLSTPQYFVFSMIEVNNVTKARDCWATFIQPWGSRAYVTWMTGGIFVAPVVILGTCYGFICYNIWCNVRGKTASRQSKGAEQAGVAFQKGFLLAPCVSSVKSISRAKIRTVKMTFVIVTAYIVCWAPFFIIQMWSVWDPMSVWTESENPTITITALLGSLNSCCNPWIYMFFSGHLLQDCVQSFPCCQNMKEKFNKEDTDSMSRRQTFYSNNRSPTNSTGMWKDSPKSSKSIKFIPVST
> 30 µM

Please provide the recorded AC50 for `C=C1C[C@@H]2[C@H](CC[C@]3(C)C(=O)CC[C@@H]23)[C@@]2(C)C=CC(=O)C=C12` , tested on UniProt P37288.
> 30 µM

Field: AC50 (UniProt P37288). Entry: `Cc1ccc(C(=O)c2cc(O)c(O)c([N+](=O)[O-])c2)cc1`
> 10 µM

====

# TESTED_ON: 5-hydroxytryptamine receptor 2A (Homo sapiens, UniProt P28223)
# Format: functional, cell-based
Please provide measured AC50 for the entries that follow.

Which AC50 value is on record for O=C(CCCCC(=O)Nc1c(I)cc(I)c(C(=O)O)c1I)Nc1c(I)cc(I)c(C(=O)O)c1I [IODIPAMIDE] ?
> 10 µM

Quick check: AC50 of `C[N+](C)(C)CC(=O)O` ?
> 30 µM

# input compound: N[C@@H](C(=O)N[C@@H]1C(=O)N2C(C(=O)O)=C(Cl)CS[C@H]12)c1ccccc1 [CEFACLOR ANHYDROUS] ; wanted: its AC50
> 30 µM

# AC50 lookup, item COc1ccc(C(=O)NCc2ccc(OCCN(C)C)cc2)cc1OC [ITOPRIDE]
> 30 µM

Request the reported AC50 associated with `O=C(O)CCn1c2c(c3ccccc31)C[C@H](NS(=O)(=O)c1ccc(F)cc1)CC2`
> 10 µM

// query AC50 value for entry COc1cc2c(cc1OC)C(=O)C(CC1CCN(Cc3ccccc3)CC1)C2 (centres undefined)
> 30 µM

// query AC50 value for entry CN(CCOc1ccc(NS(C)(=O)=O)cc1)CCc1ccc(NS(C)(=O)=O)cc1 [DOFETILIDE]
> 30 µM

Report AC50 for `Cc1cc(-c2ccccc2)nnc1NCCN1CCOCC1` please.
> 30 µM

Quick one: AC50 of `C=C1CC[C@@]2(O)[C@H]3Cc4ccc(O)c5c4[C@@]2(CCN3CC2CC2)[C@H]1O5` ?
> 30 µM

====

Adenosine receptor A2a (Homo sapiens): reported AC50 for various compounds. Note: assay procedure not described here.
Sequence (P29274 whole entry): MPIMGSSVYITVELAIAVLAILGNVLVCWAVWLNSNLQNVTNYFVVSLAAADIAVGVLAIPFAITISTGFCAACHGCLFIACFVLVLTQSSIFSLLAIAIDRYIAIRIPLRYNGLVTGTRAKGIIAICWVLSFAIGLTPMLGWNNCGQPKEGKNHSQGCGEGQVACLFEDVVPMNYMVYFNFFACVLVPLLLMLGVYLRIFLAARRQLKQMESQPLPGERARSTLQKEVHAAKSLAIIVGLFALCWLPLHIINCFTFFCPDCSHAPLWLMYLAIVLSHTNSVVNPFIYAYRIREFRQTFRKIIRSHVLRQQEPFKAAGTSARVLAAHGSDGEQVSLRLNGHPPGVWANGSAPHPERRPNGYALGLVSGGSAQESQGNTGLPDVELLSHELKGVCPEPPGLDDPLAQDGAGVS

Form field: AC50 recorded for COC(=O)C1=C(C)NC(C)=C(C(=O)OCC(C)C)C1c1ccccc1[N+](=O)[O-] (configuration not stated) with Adenosine receptor A2a (Homo sapiens) (enter value)
5.5 µM

Form field - read-out: AC50; system: Adenosine receptor A2a (Homo sapiens); submitted item: C[C@H]1O[C@H](O[C@H]2[C@H](O)[C@@H](O)[C@@H](O[C@H]3[C@H](O)[C@@H](O)C(O)O[C@@H]3CO)O[C@@H]2CO)[C@H](O)[C@@H](O)[C@@H]1N[C@H]1C=C(CO)[C@@H](O)[C@H](O)[C@H]1O (some centres not stated); note: assay procedure not described here
> 30 µM

What measured AC50 is associated with Cc1cc2c(OCC(CNC(C)(C)C)OC(=O)c3ccccc3)cccc2[nH]1 (configuration not stated) on Adenosine receptor A2a (Homo sapiens)?
> 30 µM

Form: Entry = CC(=O)O[C@]1(C(C)=O)CC[C@H]2[C@@H]3C[C@H](C)C4=CC(=O)CC[C@]4(C)[C@H]3CC[C@@]21C [MEDROXYPROGESTERONE ACETATE] | System = Adenosine receptor A2a (Homo sapiens) | AC50 = ____; note: assay procedure not described here
> 30 µM

# get_value(readout= AC50, system= Adenosine receptor A2a (Homo sapiens)) for CN1CCCC(n2nc(Cc3ccc(Cl)cc3)c3ccccc3c2=O)CC1 (configuration not stated); note: assay procedure not described here
> 30 µM

Checklist item: AC50 tested on Adenosine receptor A2a (Homo sapiens), entry `NC[C@H]1O[C@H](O[C@H]2[C@H](O)[C@@H](O[C@H]3O[C@H](CO)[C@@H](O)[C@H](N)[C@H]3O)[C@H](N)C[C@@H]2N)[C@H](O)[C@@H](O)[C@@H]1O` , value?; note: assay procedure not described here
> 10 µM

Record CCCCCCC(C)(C)c1cc(O)c2c(c1)OC(C)(C)C1CCC(=O)CC21 (configuration not stated) : what is its AC50 with Adenosine receptor A2a (Homo sapiens)?
> 30 µM

====

Assignment: determine reported AC50 for the given compounds.

// fetch Histamine H3 receptor (Homo sapiens, UniProt Q9Y5N1) AC50 for CC(Cc1ccccc1)NCCC(c1ccccc1)c1ccccc1 (stereo not drawn)
> 10 µM

# get_value(readout= AC50, system= Histamine H3 receptor (Homo sapiens, UniProt Q9Y5N1)) for `CCC[C@@H]1C[C@@H](C(=O)N[C@@H]([C@H]2O[C@H](SC)[C@H](O)[C@@H](O)[C@H]2O)[C@H](C)Cl)N(C)C1`; note: assay procedure not described here
> 10 µM

Give AC50 (Histamine H3 receptor (Homo sapiens, UniProt Q9Y5N1)) of the following compound: `C#CCN[C@@H]1CCc2ccccc21`
> 30 µM

Form entry - test system: Histamine H3 receptor (Homo sapiens, UniProt Q9Y5N1); read-out: AC50; compound: `CN1CCc2cccc3c2[C@H]1Cc1ccc(O)c(O)c1-3`; note: assay procedure not described here
Sequence (Q9Y5N1 whole entry): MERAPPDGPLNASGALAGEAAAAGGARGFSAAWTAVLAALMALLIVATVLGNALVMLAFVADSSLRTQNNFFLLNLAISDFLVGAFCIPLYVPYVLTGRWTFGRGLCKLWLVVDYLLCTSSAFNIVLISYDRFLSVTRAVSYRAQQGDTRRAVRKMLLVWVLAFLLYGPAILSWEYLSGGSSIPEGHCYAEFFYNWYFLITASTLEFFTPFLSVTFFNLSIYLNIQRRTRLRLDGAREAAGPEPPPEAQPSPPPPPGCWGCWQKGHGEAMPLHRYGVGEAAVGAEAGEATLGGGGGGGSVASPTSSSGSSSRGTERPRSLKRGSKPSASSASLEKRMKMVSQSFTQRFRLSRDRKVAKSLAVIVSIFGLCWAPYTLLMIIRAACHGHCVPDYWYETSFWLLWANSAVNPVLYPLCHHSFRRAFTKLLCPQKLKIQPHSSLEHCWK
> 10 µM

What reported AC50 corresponds to N[C@@H](C(=O)N[C@@H]1C(=O)N2C(C(=O)O)=C(Cl)CS[C@H]12)c1ccccc1 [CEFACLOR ANHYDROUS] on Histamine H3 receptor (Homo sapiens, UniProt Q9Y5N1)?
> 30 µM

So what AC50 did `O=C1NCCN1CCN1CCC(c2cn(-c3ccc(F)cc3)c3ccc(Cl)cc23)CC1` get with Histamine H3 receptor (Homo sapiens, UniProt Q9Y5N1)?
> 30 µM

API: value(readout= AC50, system= Histamine H3 receptor (Homo sapiens, UniProt Q9Y5N1), query= Cc1cc2c(OCC(CNC(C)(C)C)OC(=O)c3ccccc3)cccc2[nH]1 (stereo not drawn) ); note: assay procedure not described here
> 30 µM

API: value(readout= AC50, system= Histamine H3 receptor (Homo sapiens, UniProt Q9Y5N1), query= `O=C(CCCCCCC(=O)Nc1ccccc1)NO` ); note: assay procedure not described here
> 30 µM

Item: `CCN(CC)CCOC(=O)c1ccc(N)cc1` Test system: Histamine H3 receptor (Homo sapiens, UniProt Q9Y5N1) Read-out: AC50 Value: ?; note: assay procedure not described here
8.7 µM

Write down the reported AC50 of Cc1cccc(C)c1NC(=O)C1CCCCN1C (stereo not drawn) [MEPIVACAINE] , test system: Histamine H3 receptor (Homo sapiens, UniProt Q9Y5N1). Note: assay procedure not described here.
> 30 µM

Query the reported AC50 for Histamine H3 receptor (Homo sapiens, UniProt Q9Y5N1); item: `C1COC(NC(C2CC2)C2CC2)=N1`
> 10 µM

What value of AC50 on Histamine H3 receptor (Homo sapiens, UniProt Q9Y5N1) does CCN1CCC[C@H]1CNC(=O)c1cc(S(N)(=O)=O)ccc1OC [LEVOSULPIRIDE] have?
> 10 µM

Recall the recorded AC50 for `CC(=O)c1ccc2c(c1)N(CCCN1CCN(CCO)CC1)c1ccccc1S2` with Histamine H3 receptor (Homo sapiens, UniProt Q9Y5N1) and state it.
21 µM

// fetch Histamine H3 receptor (Homo sapiens, UniProt Q9Y5N1) AC50 for `C=C1C[C@@H]2[C@H](CC[C@]3(C)C(=O)CC[C@@H]23)[C@@]2(C)C=CC(=O)C=C12`
> 10 µM

Write down the reported AC50 of `Cc1c(Cl)cccc1Nc1ccccc1C(=O)O` , test system: Histamine H3 receptor (Homo sapiens, UniProt Q9Y5N1). Note: assay procedure not described here.
> 30 µM

Record lookup: for Histamine H3 receptor (Homo sapiens, UniProt Q9Y5N1), what AC50 belongs to CCC(=O)OCC(=O)[C@@]1(OC(=O)CC)[C@H](C)C[C@H]2[C@H]3[C@H]([C@@H](O)C[C@@]21C)[C@@]1(C)C=CC(=O)C=C1C[C@H]3Cl [ALCLOMETASONE DIPROPIONATE] ?
> 30 µM

# get_value(readout= AC50, system= Histamine H3 receptor (Homo sapiens, UniProt Q9Y5N1)) for CC(C)C(=O)Nc1ccc([N+](=O)[O-])c(C(F)(F)F)c1 [FLUTAMIDE]; note: assay procedure not described here
> 30 µM

Value wanted: AC50 (Histamine H3 receptor (Homo sapiens, UniProt Q9Y5N1)) of entry `CC(=O)N[C@H]1[C@H]([C@H](O)[C@H](O)CO)OC(C(=O)O)=C[C@@H]1N=C(N)N`
> 30 µM
